# studyTarget: HIV-1 CA hexamer (Human immunodeficiency virus type 1 group M subtype B, UniProt P12493, A146C/E177C/M317A/W316A)
# Construct: produced by assembly of recombinant CA containing four amino acid substitutions; made in house
# assaySummary: biochemical
# Format: binding
property: Kd (µM)
Note: unit µM is implicit; provide only the numeric part.

// query Kd value for entry "CN(C(=O)[C@H](Cc1ccccc1)NC(=O)Cc1cc[nH]c1)c1ccccc1"
5.5

====

# studyTarget: HIV-1 CA hexamer (Human immunodeficiency virus type 1 group M subtype B, UniProt P12493, A146C/E177C/M317A/W316A)
# Construct: produced by assembly of recombinant CA containing four amino acid substitutions; made in house
# assaySummary: biochemical
# Assay type: binding
Ends that are not written are not given here.
property: Kd

# input sequence: TNNSPAGVFTFGANSST [Nup153pep S1412A] ; wanted: its Kd
~130 µM
